The measurements presented in this section are drawn from ChEMBL document CHEMBL1149179.

Parameter: Ratio. Scope: all listed entries.
experiment: Ratio of inhibitory concentration of rHsp90 and cell lysate Hsp90
endpoint.label: Ratio

CCN(Cc1ccccc1)Cc1ccc(C(=O)NC2=C3C[C@@H](C)C[C@H](OC)[C@H](O)[C@@H](C)/C=C(\C)[C@H](OC(N)=O)[C@@H](OC)/C=C\C=C(/C)C(=O)NC(=CC2=O)C3=O)cc1 : 92
CO[C@H]1/C=C\C=C(/C)C(=O)NC2=CC(=O)C(NC(=O)c3ccc(CN(C)C)cc3)=C(C[C@@H](C)C[C@H](OC)[C@H](O)[C@@H](C)/C=C(\C)[C@@H]1OC(N)=O)C2=O : 200
CO[C@H]1/C=C\C=C(/C)C(=O)NC2=CC(=O)C(c3ccccc3)=C(C[C@@H](C)C[C@H](OC)[C@H](O)[C@@H](C)/C=C(\C)[C@@H]1OC(N)=O)C2=O : 43
CO[C@H]1/C=C\C=C(/C)C(=O)NC2=CC(=O)C(NC(=O)c3ccc(CN4CCN(C)CC4)cc3)=C(C[C@@H](C)C[C@H](OC)[C@H](O)[C@@H](C)/C=C(\C)[C@@H]1OC(N)=O)C2=O : 67
CO[C@H]1/C=C\C=C(/C)C(=O)NC2=CC(=O)C(c3cccs3)=C(C[C@@H](C)C[C@H](OC)[C@H](O)[C@@H](C)/C=C(\C)[C@@H]1OC(N)=O)C2=O : 31
CO[C@H]1/C=C\C=C(/C)C(=O)NC2=CC(=O)C(NC(=O)OCCCCN3CCOCC3)=C(C[C@@H](C)C[C@H](OC)[C@H](O)[C@@H](C)/C=C(\C)[C@@H]1OC(N)=O)C2=O : 100
CO[C@H]1/C=C\C=C(/C)C(=O)NC2=CC(=O)C(NC(=O)c3ccc(CN4CCN(c5ccc(Cl)cc5)CC4)cc3)=C(C[C@@H](C)C[C@H](OC)[C@H](O)[C@@H](C)/C=C(\C)[C@@H]1OC(N)=O)C2=O : 111
CO[C@H]1/C=C\C=C(/C)C(=O)NC2=CC(=O)C(NC(=O)OCC(C)C)=C(C[C@@H](C)C[C@H](OC)[C@H](O)[C@@H](C)/C=C(\C)[C@@H]1OC(N)=O)C2=O : 1330
CO[C@H]1/C=C\C=C(/C)C(=O)NC2=CC(=O)C(NC(=O)c3cccs3)=C(C[C@@H](C)C[C@H](OC)[C@H](O)[C@@H](C)/C=C(\C)[C@@H]1OC(N)=O)C2=O : 75
C=CCNC1=C2C[C@@H](C)C[C@H](OC)[C@H](O)[C@@H](C)/C=C(\C)[C@H](OC(N)=O)[C@@H](OC)/C=C/C=C(\C)C(=O)NC(=CC1=O)C2=O : 40
